test_system: F508delCFTR (Homo sapiens, UniProt P13569, DEL508-508)
Construct: expressed in transfected cells; host or cells: CFBE41o- (human lung derived epithelial cell line), doxycycline-inducible
Sequence (P13569 with tags, fused parts or gaps DEL508-508): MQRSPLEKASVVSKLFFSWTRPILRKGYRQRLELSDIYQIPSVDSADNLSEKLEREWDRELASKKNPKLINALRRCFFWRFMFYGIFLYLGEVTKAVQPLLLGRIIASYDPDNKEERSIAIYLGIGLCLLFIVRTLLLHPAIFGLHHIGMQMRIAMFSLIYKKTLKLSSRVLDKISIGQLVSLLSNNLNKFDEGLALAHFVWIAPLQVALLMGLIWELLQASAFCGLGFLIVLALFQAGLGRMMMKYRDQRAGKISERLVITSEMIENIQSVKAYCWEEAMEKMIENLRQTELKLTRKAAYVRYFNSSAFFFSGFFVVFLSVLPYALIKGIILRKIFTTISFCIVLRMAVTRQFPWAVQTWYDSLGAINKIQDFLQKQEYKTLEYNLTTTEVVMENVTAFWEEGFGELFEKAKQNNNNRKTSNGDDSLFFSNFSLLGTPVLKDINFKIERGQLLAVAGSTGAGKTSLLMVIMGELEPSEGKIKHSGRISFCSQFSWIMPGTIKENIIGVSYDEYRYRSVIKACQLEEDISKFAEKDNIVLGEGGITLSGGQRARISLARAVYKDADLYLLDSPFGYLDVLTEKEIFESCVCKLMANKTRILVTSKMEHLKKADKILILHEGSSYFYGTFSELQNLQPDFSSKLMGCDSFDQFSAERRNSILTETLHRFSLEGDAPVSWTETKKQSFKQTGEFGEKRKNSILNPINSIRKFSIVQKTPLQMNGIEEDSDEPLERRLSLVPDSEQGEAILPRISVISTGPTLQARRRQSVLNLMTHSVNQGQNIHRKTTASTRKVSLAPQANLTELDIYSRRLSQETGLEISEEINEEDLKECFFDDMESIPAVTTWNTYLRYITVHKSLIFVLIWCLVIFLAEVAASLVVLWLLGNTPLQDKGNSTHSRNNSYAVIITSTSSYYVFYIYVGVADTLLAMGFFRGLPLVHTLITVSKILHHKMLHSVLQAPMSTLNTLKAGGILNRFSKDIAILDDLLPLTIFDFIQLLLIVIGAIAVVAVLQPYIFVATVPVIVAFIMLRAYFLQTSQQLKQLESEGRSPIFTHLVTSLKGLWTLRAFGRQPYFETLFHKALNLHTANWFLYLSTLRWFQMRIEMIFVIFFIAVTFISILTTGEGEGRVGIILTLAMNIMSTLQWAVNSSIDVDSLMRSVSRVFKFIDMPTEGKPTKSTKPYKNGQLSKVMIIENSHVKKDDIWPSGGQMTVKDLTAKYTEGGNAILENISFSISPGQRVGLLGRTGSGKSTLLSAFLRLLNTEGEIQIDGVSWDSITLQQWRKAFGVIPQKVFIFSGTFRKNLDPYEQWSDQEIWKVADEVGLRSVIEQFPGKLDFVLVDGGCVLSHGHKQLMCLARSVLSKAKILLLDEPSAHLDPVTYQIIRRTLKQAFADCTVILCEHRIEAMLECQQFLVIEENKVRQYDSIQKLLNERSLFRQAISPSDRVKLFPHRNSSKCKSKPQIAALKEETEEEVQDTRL
assay_explanation: Cell Surface Expression-Horse Radish Peroxidase (CSE-HRP) assay
Format: cell-based
condition_info: CFBE41o-F508delCFTR-HRP cells; F508delCFTR cell surface expression, luminescence; 18-24 hours at 33° C.; highest concentration 20 μM
pEC50: −log10 of the molar value.
Rule: pEC50 of 6 or more gives true (1); anything lower gives false (0).

| compound | cat |
| --- | --- |
| COc1ccc2c(c1)O[C@@H](c1ccc(C(=O)O)cc1)C[C@H]2NC(=O)C(C)(C)Oc1cccc(C(F)(F)F)c1 [Example 78] | false (0) |

Please tell me: is the compound COc1ccc2c(c1)O[C@@H](c1ccc(C(=O)O)cc1)C[C@H]2NC(=O)C1(c2ccc(C)cc2)CC1 [Example 6] at or over 6 in terms of pEC50?
true (1)

Input COc1ccc2c(c1)O[C@@H](c1ccc(C(=O)O)cc1)C[C@H]2NC(=O)C(C)(C)Oc1ccc(Cl)cc1 [Example 119]
false (0)

Input COc1ccc2c(c1)O[C@@H](c1cccc(C(=O)O)c1)C[C@H]2NC(=O)C1(C)CCc2cc(C)ccc21 (stereo partly drawn) [Example 122]
true (1)

Input COc1cccc2c1[C@@](C)(C(=O)N[C@@H]1C[C@H](c3cccc(C(=O)O)c3)Oc3ccccc31)CC2 [Example 46]
false (0)
